IC50 for cGMP-dependent protein kinase (Eimeria tenella, UniProt Q8MMZ8) - collated from the literature.
Consider the cut-off 0.2 nM. If the recorded IC50 is strictly smaller, the label is t; if not, the label is f.

{"COMPOUND": "CS(=O)(=O)N1CCN(S(C)(=O)=O)C(CN2CCC(c3cc(-c4ccncc4)c(-c4ccc(F)cc4)[nH]3)CC2)C1 (stereo not given)", "LABEL": "f"}
{"COMPOUND": "C[C@H](Nc1nccc(-c2c(-c3ccc(F)cc3)nc3cc(CN(C)CCNS(C)(=O)=O)ccn23)n1)c1ccccc1", "LABEL": "t"}
{"COMPOUND": "Fc1ccc(-c2[nH]c(C3CCN(CC4CNCCN4)CC3)cc2-c2ccncc2)cc1 (stereo not given)", "LABEL": "t"}
{"COMPOUND": "CN(C)Cc1ccn2c(-c3ccnc(NS(=O)(=O)c4ccccc4)n3)c(-c3ccc(F)cc3)nc2c1", "LABEL": "f"}
{"COMPOUND": "CN(C)Cc1ccn2c(-c3ccnc(Nc4ccccn4)n3)c(-c3ccc(F)cc3)nc2c1", "LABEL": "f"}

----------
IC50 for cGMP-dependent protein kinase (Eimeria tenella, UniProt Q8MMZ8) - collated from the literature.
READOUT LABEL: IC50 (nM)

{"MOL SMILES": "CCN(CC)Cc1ccn2c(-c3ccnc(N)n3)c(-c3ccc(F)cc3)nc2c1", "TARGET OR SYSTEM": "cGMP-dependent protein kinase (Eimeria tenella, UniProt Q8MMZ8)", "UNIT STRING": "nM", "READOUT NUMBER": 0.17}
{"MOL SMILES": "CN1CCC(c2[nH]c(-c3ccc(F)cc3)c(-c3ccncc3)c2Cl)CC1", "TARGET OR SYSTEM": "cGMP-dependent protein kinase (Eimeria tenella, UniProt Q8MMZ8)", "UNIT STRING": "nM", "READOUT NUMBER": 1.02}
{"MOL SMILES": "COC(=O)Nc1nccc(-c2c(-c3ccc(F)cc3)nc3cc(CN(C)C)ccn23)n1", "TARGET OR SYSTEM": "cGMP-dependent protein kinase (Eimeria tenella, UniProt Q8MMZ8)", "UNIT STRING": "nM", "READOUT NUMBER": 0.45}
{"MOL SMILES": "OCC1CCN(Cc2cc(-c3ccncc3)c(-c3ccc(F)cc3)[nH]2)CC1", "TARGET OR SYSTEM": "cGMP-dependent protein kinase (Eimeria tenella, UniProt Q8MMZ8)", "UNIT STRING": "nM", "READOUT NUMBER": 13}
{"MOL SMILES": "Nc1nccc(-c2c(-c3ccc(F)cc3)nc3cc(CO)ccn23)n1", "TARGET OR SYSTEM": "cGMP-dependent protein kinase (Eimeria tenella, UniProt Q8MMZ8)", "UNIT STRING": "nM", "READOUT NUMBER": 2.7}

----------
IC50 for cGMP-dependent protein kinase (Eimeria tenella, UniProt Q8MMZ8) - collated from the literature.
READOUT LABEL: IC50 (nM)

{"COMPOUND": "Cc1cc(-c2cc(C3CCN(C)CC3)[nH]c2-c2ccc(F)cc2)on1", "INEQUALITY SIGN": ">", "READOUT NUMBER": 1000}
{"COMPOUND": "CC(O)C(O)CN1CCC(c2cc(-c3ccncc3)c(-c3ccc(F)cc3)[nH]2)CC1 (stereo not given)", "INEQUALITY SIGN": "=", "READOUT NUMBER": 0.4}
{"COMPOUND": "CN(C)Cc1ccn2c(-c3ccnc(N)n3)c(-c3c(F)cc(F)cc3F)nc2c1", "INEQUALITY SIGN": "=", "READOUT NUMBER": 0.52}
{"COMPOUND": "CN1CCC(c2cc(-c3ccncc3)c(-c3ccc(F)c(Br)c3)[nH]2)CC1", "INEQUALITY SIGN": "=", "READOUT NUMBER": 0.15}
{"COMPOUND": "CN(C)Cc1ccn2c(-c3ccnc(NC4CCCC4)n3)c(-c3ccc(F)cc3)nc2c1", "INEQUALITY SIGN": "=", "READOUT NUMBER": 0.102}

----------
log10 IC50 for cGMP-dependent protein kinase (Eimeria tenella, UniProt Q8MMZ8) - collated from the literature.
READOUT LABEL: log10 IC50 (log10 of the value in pM)

{"MOLECULE": "CN1CCC(c2cc(-c3cccnc3)c(-c3ccc(F)cc3)[nH]2)CC1", "TARGET OR SYSTEM": "cGMP-dependent protein kinase (Eimeria tenella, UniProt Q8MMZ8)", "log10 IC50": 4.07}
{"MOLECULE": "CN(C)Cc1ccn2c(-c3ccnc(N(C)Cc4ccccc4)n3)c(-c3ccc(F)cc3)nc2c1", "TARGET OR SYSTEM": "cGMP-dependent protein kinase (Eimeria tenella, UniProt Q8MMZ8)", "log10 IC50": 3.48}
{"MOLECULE": "CC(C)(C)CNc1nccc(-c2c(-c3ccc(F)cc3)nc3cc(CN4CCC4)ccn23)n1", "TARGET OR SYSTEM": "cGMP-dependent protein kinase (Eimeria tenella, UniProt Q8MMZ8)", "log10 IC50": 2.65}
{"MOLECULE": "CC(c1ccn2c(-c3ccnc(N)n3)c(-c3ccc(F)cc3)nc2c1)N(C)C (stereo not given)", "TARGET OR SYSTEM": "cGMP-dependent protein kinase (Eimeria tenella, UniProt Q8MMZ8)", "log10 IC50": 1.95}
{"MOLECULE": "Fc1ccc(-c2[nH]c(CN3CCOCC3)cc2-c2ccncc2)cc1", "TARGET OR SYSTEM": "cGMP-dependent protein kinase (Eimeria tenella, UniProt Q8MMZ8)", "log10 IC50": 3.88}
{"MOLECULE": "CC(C)(C)OCC(O)CN1CCC(c2cc(-c3ccncc3)c(-c3ccc(F)cc3)[nH]2)CC1 (stereo not given)", "TARGET OR SYSTEM": "cGMP-dependent protein kinase (Eimeria tenella, UniProt Q8MMZ8)", "log10 IC50": 2.99}
{"MOLECULE": "NC1(CN2CCC(c3cc(-c4ccncc4)c(-c4ccc(F)cc4)[nH]3)CC2)CC1", "TARGET OR SYSTEM": "cGMP-dependent protein kinase (Eimeria tenella, UniProt Q8MMZ8)", "log10 IC50": 2.38}
{"MOLECULE": "CN(C)CCc1ccn2c(-c3ccnc(N)n3)c(-c3ccc(F)cc3)nc2c1", "TARGET OR SYSTEM": "cGMP-dependent protein kinase (Eimeria tenella, UniProt Q8MMZ8)", "log10 IC50": 2.66}
{"MOLECULE": "CCCC(C)CN1CCC(c2ccn3c(-c4ccnc(N)n4)c(-c4ccc(F)cc4)nc3c2)CC1 (stereo not given)", "TARGET OR SYSTEM": "cGMP-dependent protein kinase (Eimeria tenella, UniProt Q8MMZ8)", "log10 IC50": 2.08}
{"MOLECULE": "CN1CCCCC1c1cc(-c2ccncc2)c(-c2ccc(F)cc2)[nH]1 (stereo not given)", "TARGET OR SYSTEM": "cGMP-dependent protein kinase (Eimeria tenella, UniProt Q8MMZ8)", "log10 IC50": 3.43}

----------
IC50 for cGMP-dependent protein kinase (Eimeria tenella) - collated from the literature.
Consider the cut-off 0.08 nM. If the recorded IC50 is strictly smaller, the label is met; if not, the label is not met.

{"MOL SMILES": "Nc1nccc(-c2c(-c3ccc(F)cc3)nc3cc(C4CCN(CCO)CC4)ccn23)n1", "LABEL": "met"}
{"MOL SMILES": "Cc1cccc(CNc2nccc(-c3c(-c4ccc(F)cc4)nc4cc(CN(C)C)ccn34)n2)c1", "LABEL": "not met"}
{"MOL SMILES": "Nc1nccc(-c2c(-c3ccc(F)cc3)nc3cc(C4CCN(CCc5ccccc5)CC4)ccn23)n1", "LABEL": "met"}
{"MOL SMILES": "CN(C)Cc1ccn2c(-c3nc(N)ncc3F)c(-c3ccc(F)cc3)nc2c1", "LABEL": "not met"}
{"MOL SMILES": "CC(C)CN1CCC(c2ccn3c(-c4ccnc(N)n4)c(-c4ccc(F)cc4)nc3c2)CC1", "LABEL": "not met"}
{"MOL SMILES": "CN(C)Cc1ccn2c(-c3ccnc(NCc4cc(F)ccc4F)n3)c(-c3ccc(F)cc3)nc2c1", "LABEL": "met"}
{"MOL SMILES": "OCCN1CCC(c2cc(-c3ccncc3)c(-c3ccc(F)cc3)[nH]2)CC1", "LABEL": "not met"}
{"MOL SMILES": "CCCNc1nccc(-c2c(-c3ccc(F)cc3)nc3cc(CN(C)C)ccn23)n1", "LABEL": "not met"}
{"MOL SMILES": "CN1CCC(c2cc(-c3ccncc3)c(-c3nccs3)[nH]2)CC1", "LABEL": "not met"}

----------
IC50 for cGMP-dependent protein kinase (Eimeria tenella, UniProt Q8MMZ8) - collated from the literature.

{"MOLECULE": "C=CCOCC(O)CN1CCC(c2cc(-c3ccncc3)c(-c3ccc(F)cc3)[nH]2)CC1 (stereo not given)", "INEQUALITY SIGN": "=", "IC50 / nM": 0.8}
{"MOLECULE": "C[C@H](Nc1nccc(-c2c(-c3ccc(F)cc3)nc3cc(CN(C)CCN4CCC4)ccn23)n1)c1ccccc1", "INEQUALITY SIGN": "=", "IC50 / nM": 0.1}
{"MOLECULE": "O=C(O)Cc1cc(-c2ccncc2)c(-c2ccc(F)cc2)[nH]1", "INEQUALITY SIGN": ">", "IC50 / nM": 1000}
{"MOLECULE": "C[C@H](Nc1nccc(-c2c(-c3ccc(F)cc3)nc3cc(CN(C)C(CO)CO)ccn23)n1)c1ccccc1", "INEQUALITY SIGN": "=", "IC50 / nM": 0.15}
{"MOLECULE": "CNCc1ccn2c(-c3ccnc(N)n3)c(-c3ccc(F)cc3)nc2c1", "INEQUALITY SIGN": "=", "IC50 / nM": 0.15}
